test: Inhibition of inositol-trisphosphate phosphorylation; parameters: species or system Rattus norvegicus
result-type: Ki (µM)
All answers are understood in µM, so give the number only.

Request: Which Ki is reported for this compound? O=P(O)(O)OC1C(O)C(OP(=O)(O)O)C(F)(F)C(O)C1OP(=O)(O)O (stereo in doubt; L-(4b))
Result: 11.5
